# study_target: T1, mouse MET-Fc (R&D Systems) (mouse, UniProt P16056 25-929, limits assumed)
# T1 construct: bought chimeric protein; also called mMET; not shown: Fc part
# T1 sequence (P16056 25-929 limits assumed): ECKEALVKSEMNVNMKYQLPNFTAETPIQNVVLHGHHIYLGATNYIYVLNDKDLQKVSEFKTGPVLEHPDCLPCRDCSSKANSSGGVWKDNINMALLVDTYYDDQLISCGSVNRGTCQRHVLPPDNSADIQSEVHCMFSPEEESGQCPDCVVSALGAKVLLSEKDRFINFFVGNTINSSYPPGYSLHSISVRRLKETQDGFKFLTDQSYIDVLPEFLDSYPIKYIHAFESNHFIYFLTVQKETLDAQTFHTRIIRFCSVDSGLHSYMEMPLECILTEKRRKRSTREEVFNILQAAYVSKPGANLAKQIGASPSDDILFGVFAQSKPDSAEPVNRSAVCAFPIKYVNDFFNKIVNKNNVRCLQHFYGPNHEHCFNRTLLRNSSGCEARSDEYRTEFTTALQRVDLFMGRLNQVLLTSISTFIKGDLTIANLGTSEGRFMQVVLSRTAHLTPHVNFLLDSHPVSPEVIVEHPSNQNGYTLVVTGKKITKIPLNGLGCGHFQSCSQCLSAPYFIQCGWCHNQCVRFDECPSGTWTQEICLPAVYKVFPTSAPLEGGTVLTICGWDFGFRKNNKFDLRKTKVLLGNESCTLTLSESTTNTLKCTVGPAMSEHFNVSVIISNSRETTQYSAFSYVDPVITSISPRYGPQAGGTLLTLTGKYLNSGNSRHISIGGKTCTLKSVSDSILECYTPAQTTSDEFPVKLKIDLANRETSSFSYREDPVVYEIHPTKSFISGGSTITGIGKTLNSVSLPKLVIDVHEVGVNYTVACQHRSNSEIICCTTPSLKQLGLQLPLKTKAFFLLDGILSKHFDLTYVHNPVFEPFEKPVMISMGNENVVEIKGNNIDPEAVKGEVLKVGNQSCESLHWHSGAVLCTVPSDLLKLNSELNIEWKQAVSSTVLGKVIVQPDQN
# test_method_notes: competition ELISA, mMET-Fc in solid phase, competitor 0.3 nM biotinylated mHGF
Measured pIC50, listed per entry.
// pIC50 is dimensionless: -log10 of concentration (M)

>  <binder>
71C3 chimeric llama-human IgG1 mAb (antibody, V domains shown, llama VH on human IgG1 CH1-CH2-CH3, llama VL on human lambda CL) VH: QLQLVESGGGLVQPGGSLRLSCAASGFTFSSHAMSWVRQAPGKGLEWVSAINSGGGSTSYADSVKGRFTISRDNAKNTLYLQMNSLKPEDTAVYYCAKELRFDLARYTDYEAWDYWGQGTQVTVSS VL: SYELTQPSALSVTLGQTAKITCQGGSLGSSYAHWYQQKPGQAPVLVIYDDDSRPSGIPERFSGSSSGGTATLTISGAQAEDEGDYYCQSADSSGNAAVFGGGTHLTVL

>  <pIC50>
8.81

$$$$

// 72F8 chimeric llama-human IgG1 mAb (antibody, V domains shown, llama VH on human IgG1 CH1-CH2-CH3, llama VL on human lambda CL) VH: ELQLVESGGGLVQPGGSLRLSCAASGFTFSNYVMSWVRQAPGKGLEWVSDTNSGGSTSYADSVKGRFTISRDNAKNTLYLQMNSLKPEDTALYYCARSFFYGMNYWGKGTQVTVSS VL: QSALTQPPSLSASPGSSVRLTCTLSSGNNIGSYDISWYQQKAGSPPRYLLNYYTDSRKHQDSGVPSRFSGSKDASANAGLLLISGLQPEDEADYYCSAYKSGSYRWVFGGGTHVTVL : pIC50 value = 9.28
